# credit: patent US20260125477A1

Measured kon by item
# assayed system: T1, recombinant human B7-H3 (2Ig) protein, with His tag (human, UniProt Q5ZPR3-2 29-245, limits assumed)
# T1 construct: Bought protein; also called human B7-H3/CD276 protein
# T1 sequence (looked up): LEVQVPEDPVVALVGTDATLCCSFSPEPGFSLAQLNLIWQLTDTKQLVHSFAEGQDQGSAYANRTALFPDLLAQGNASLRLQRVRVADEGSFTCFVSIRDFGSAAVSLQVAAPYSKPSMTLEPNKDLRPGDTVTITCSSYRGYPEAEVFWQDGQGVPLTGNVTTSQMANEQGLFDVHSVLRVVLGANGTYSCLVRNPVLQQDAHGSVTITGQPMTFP
# protocol text: SPR (Biacore T200), antibody captured on Protein A chip, His-tagged antigen injected
Reply with just the number (in M⁻¹ s⁻¹).

binder	kon (M⁻¹ s⁻¹)
10D7 (antibody, human IgG1, kappa, V domains shown, also called 10D7-WT; Ab10D7) VH: QVQLVQSGPGLVKPSETLSLTCTVSGGSISRSSYYWGWIRQPPGKGLEWIGNIFYAGSTYYNPSLKSRVTISVDTSKNQFSLKLSSVTAADTAVYYCARRITGTTGWFDPWGQGTLVTVSS VL: DIQLTQSPSSLSASVGDRVTITCRASQGIRNDLGWYQQKPGKAPKLLIYAASTLQSGVPSRFSGSGSGTDFTLTISSLQPEDFATYYCLQDYNYPRTFGQGTKVEIKR	152000

Record 10F5 (antibody, human IgG1, kappa, V domains shown, also called Ab10F5) VH: QVQLVQSGAEVKKPGSSVKVSCKASGGTFSSQAISWVRQAPGQGLEWMGRIIPMLGIGDYAQSFQGRVTITADKSTSTAYLEVSSLGSEDTAVYYCAREGIAALGTNYYYGMDVWGQGTAVTVSS VL: EIVMTQSPSSVSASVGDRVTITCRASQGISRWLAWYQQKPGKAPKLLIYVASSLQSGVPSRFSGSGSGTDFTLTISSLQPEDFATYYCQQANSFPFTFGPGTKVDIRR . Reported kon: 40500

Item: Enoblituzumab (antibody, human IgG1, kappa, V domains shown, Humanized anti-B7-H3 antibody of MacroGenics with optimised Fc, used as the positive control; also called AbEno; enoblituzumab-IgG1-Mut) VH: EVQLVESGGGLVQPGGSLRLSCAASGFTFSSFGMHWVRQAPGKGLEWVAYISSDSSAIYYADTVKGRFTISRDNAKNSLYLQMNSLRDEDTAVYYCGRGRENIYYGSRLDYWGQGTTVTVSS VL: DIQLTQSPSFLSASVGDRVTITCKASQNVDTNVAWYQQKPGKAPKALIYSASYRYSGVPSRFSGSGSGTDFTLTISSLQPEDFATYYCQQYNNYPFTFGQGTKLEIKR | kon: 73700

Documented kon of 6B5 (antibody, human IgG1, kappa, V domains shown, also called 6B5-WT; Ab6B5) VH: QVQLVESGPGLVKPSQTLSLTCTVSDGSISSGGYYWSWIRQHPGKGLEWIGYIYYSGGTYYSPSLKSRVTISVDTSKNQFSLKLTSVTAADTAVYYCARRAGYSSSFDSWGQGILVTVSS VL: EIVLTQSPLSLPVTPGEPASISCRSSQSLLYSNGYTYLDWYLQKPGQSPQFLIYLGFNRASGVPDRFSGSGSGTDFTLKISRVEAEDVGVYYCMQGLQTPYTFGQGTKLEIKR : 127000
